Cited source: the nanobody polyreactivity screen of Harvey et al. (2022)

- Protocol Description: yeast display, Sf9 membrane polyspecificity reagent, FACS + sequencing; frameworks hold sequencing errors
Measurement Label: polyreactivity (PSR sort gate)

Example results:
{"columns": ["Sequence Record", "polyreactivity (PSR sort gate)"],
 "data": [
  ["QVQLVESGGGLVQAGGSLRLSCAASGRIFHYYAMGWYRQAPGKERELVAAITSSGGSTYYADSVKGRFTISRDNAKNTVYLQMNSLKPEDTAVYYCAAGLIVGRFLRYDYWGQGTQVTVSS", "high polyreactivity"],
  ["QVQLVESGGGLVQAGGTLRLSCAASGRTFNTYAMGWYRLAPGKERELVAAITVPGGSTYYADSVKGRFTLSRDNAKNTVYLQMNSLKPADTAVYYCAAERPPDGYLVVGYVSTQYYYWGQGTQVTVSS", "low polyreactivity"],
  ["QVQLVETGGGLVQAAGSLRLSSAASGSTFLANTMGWYRQEPGKEREFVAAITRRGGSTYYADSVKGRFTISRDNAKNTVYLQMNSLKPEDTAVYYCNADWYFQYPYDYWGQGTQVTVSS", "low polyreactivity"],
  ["QVQLVESGGGLVQAGGSLRLSCAASGFTFRYYSMGWYRQAPGKERELVAAISSGGSTKYADSVKGRFTISRDNAKNTVYLQMNSLKPEDTAVYYCAARVVDGAQPRYVVIINTRYYWGQGTQVTVSS", "high polyreactivity"]
]}

Query sequence follows.
Prompt: What does the record list as polyreactivity (PSR sort gate) for QVQLVESGGGLVQAGGSLRLSCAASGRTFRSYAMGWYRQAPGKERELVAAIRGGGGRTHYADSVKGRFTISRDNAKNTVYLQMNSLKPEDTAVYYCAAGRPYLESKLYDYWGQGTHVTVSS ?
Completion: high polyreactivity
